FYI, the data here is from PubChem BioAssay AID602332.

Can you tell me activation for the items I'm about to list?
assay.explanation: qHTS for Inducers of the Endoplasmic Reticulum Stress Response (ERSR) in Human Glioma: qHTS; note: % of control where 0% means no effect; nearly all actives have a fitted effect of over 35% in size
condition.label: U87-MG GRP78 promoter luciferase reporter, 16 h; active compounds read high
Description: Primary protein unfolding takes place for many diseases, including diabetes and hypoxia, , and triggers a reaction in the cells called ER stress response (ERSR). ). […] Stable transfected human glioma cell line, U87-MG, are dispensed at density 1000 cells/well into Greiner white solid bottom 1536-well assay plates. […] The assay plates will be incubated for 16 hours and developed by adding appropriate quantities of the Promega Bright Glo reagent. […]
About 75 (0.02%) of roughly 420,000 compounds were called active. For the sample, actives were picked, then their nearest neighbours and some compounds at random.
Number in %, nothing else.

Qu. For the compound Cc1ccc(C(=O)Nc2cccc(-c3nc(CNC(=O)c4ccccc4-n4cccn4)c(C)o3)c2)s1 , what activation is on record?
Ans. -4.42

Qu. Request the reported activation associated with CO[C@H]1COC(=O)[C@@H](C)NC(=O)C/C=C\[C@@H](C)[C@H](OC)COC(=O)C/C=C\[C@@H]1C
Ans. -4.07

Qu. Return reported activation; argument: COC(=O)c1ccccc1C(=O)NCc1nc(N2CCCC2)c2cccc(C)c2n1
Ans. -2.48

Qu. Please look up its activation: CCC(C)C1OC2(C=CC1C)CC1CC(C/C=C(/C)C(OC3CC(OC)C(OC4CC(OC)C(NC(C)=O)C(C)O4)C(C)O3)C(C)/C=C\C=C3\COC4C(O)C(C)=CC(C(=O)O1)C34O)O2 (centres undefined)
Ans. -10.3
